Origin of measurements: PubChem BioAssay

experiment: small-molecule microarray binders of probe aNog, primary screen, biochemical, biotinylated probe, 635/667 nm fluorescence (AID 1115); conditions: higher = more signal;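 also: probe is biotinylated aNog protein used at 0.15 µg/mL for 1 h at 4 C; z-score combines 667 nm fluorescence of each spot with its signal to noise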
Output Condition met for composite z-score not less than 0.3; output Condition not met otherwise.

Entry COc1ccc(NC(=O)O[C@H]2[C@H](OC(=O)Nc3ccccc3)[C@H](OC(=O)Nc3ccccc3)[C@@H](OC)O[C@@H]2CO)cc1 : is its composite z-score no less than 0.3?
Condition not met

---

Each entry below lists one item and its recorded composite z-score value.
tested on: wheat germ agglutinin (Triticum aestivum), Alexa647-labelled; assay: wheat germ agglutinin binders on compound microarrays, profiling panel, artefact control for SMM control-protein annotation, biochemical, small-molecule microarray, 635/667 nm fluorescence (AID 1140); details: WGA-A647 binding, 635 nm fluorescence, higher = more signal;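 also: score merges 667 nm feature emission with signal to noise over triplicate slides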
Answer with the value's number alone.

COCCCNC(=O)[C@@]1(Cc2ccccc2CN=[N+]=[N-])N=C(c2ccc(OCCCO)cc2)O[C@H]1c1ccccc1    0.73

Please indicate composite z-score recorded for C=CCC(OC(C)=O)[C@@H]1[C@@H](N(Cc2cc3ccccc3o2)C(=O)Cc2ccc(F)cc2)c2cc(OCCCO)ccc2N1C(=O)c1ccc2ccccc2c1 (stereo partly drawn)
0.181

State its composite z-score: CO[C@H]1O[C@H](CO)[C@@H](OC(=O)Nc2ccc3c(c2)OCO3)[C@H](OC(=O)c2cc3ccccc3[nH]2)[C@H]1OC(=O)c1cc2ccccc2[nH]1
-0.0971

---

The molecules listed here are annotated with their z-score.
assay: A549 lung cancer cell viability effects, profiling panel, resazurin fluorescence, 24 h, PK04 Diversity Set (AID 1171); conditions: higher = more signal, called active from +8 up or from −8 down; also: test concentration not given here
Answer as a number with no unit attached.

C=C(C)[C@@H]1CC=C(C(O)C2C=CC3C(=O)N(c4ccccc4)C(=O)C3N2Nc2ccccc2F)CC1 (some centres undefined)    -0.35
COC(=O)c1c(CC[C@@H](CO)NC(=O)N2CCC[C@H]2Cn2cc(Cc3ccccc3)nn2)oc(C(C)=O)c1C(=O)OC    0.435
CN(C)C(=O)[C@@]1(Cc2ccccc2CN=[N+]=[N-])N=C(c2ccc(OCCCO)cc2)O[C@H]1c1ccccc1CN=[N+]=[N-]    -0.67
CCOC(=O)c1ccc(NC(=O)O[C@H]2[C@H](OC(=O)Nc3ccc4c(c3)OCO4)[C@H](OC(=O)Nc3ccc4c(c3)OCO4)[C@@H](OC)O[C@@H]2CO)cc1    -0.824

Identify measured z-score corresponding to O=C1C2C=CC(C(O)c3ccccc3)N(Nc3ccccc3F)C2C(=O)N1c1ccccc1 (centres undefined)
-0.412

Using the record for O=C1O[C@H](c2ccccc2)[C@H](c2ccccc2)N2[C@H]1[C@@H](C(=O)Nc1nc3ccccc3s1)[C@]1(C(=O)Nc3ccc(C#CCCO)cc31)[C@H]2c1ccc(O)cc1 , state its measured z-score.
0.679

Note z-score for the molecule shown: COc1cc2c(cc1OC)CN(C(=O)[C@@H]1[C@H]3C(=O)O[C@H](c4ccccc4)[C@H](c4ccccc4)N3[C@H](c3ccc(OCCO)cc3)[C@@]13C(=O)Nc1ccccc13)CC2
0.319

Give the measured z-score for C=CCN1C(=O)[C@@]2(O[C@@H](CCn3cc([C@H](O)c4ccccc4)nn3)[C@H]([Si](C)(C)c3ccc(OC)cc3)[C@H]2C)c2cc(N3CCC3=O)ccc21
-1.35

State, in one line, measured z-score of CC(C)C[C@@H]1NC(=O)[C@@H]2C[C@H](C(=O)NCCCCN(C)C)[C@H](c3cccc(OCCO)c3)N2C1=O
0.389

Answer with reported z-score of CCC[C@@H]1C[C@@]1(CCC)[C@@H](NC(=O)OCc1ccccc1)c1ccc(-c2ccccc2)cc1
2.39
